Would you kindly list pKd for each of these binders?
system_under_test: T1, human a-PD-L1 Fc (Sino Biological, 10084-H02H, LC11NO2402) (human, UniProt Q9NZQ7 19-239)
T1 construct: Bought Fc fusion immobilised on the SPR chip; Printed as 'a-PD-L1 Fc' but used as the antigen (ligand) for the anti-PD-L1 scFvs; also called Human PD-L1; not shown: Fc part
assay_info: SPR, PD-L1 Fc immobilised, scFv analyte, 1:1 fit
Give bare numbers, as −log10 of the molar value.

Please review the entries below; each comes with its answer.
{"binder": "PRO3309 (scFv 37-20-B03-sc09.1_(L12R, T101S, L144A, T146Q)) (scFv, PRO2230 variant; VH substitutions, AHo numbering; also called PRO2230 L12R-T101S-L144A-T146Q) scFv: DIQMTQSPASLSASVGDRVTITCQASQSIGTYLAWYQQKPGKPPKLLIYRAFILASGVPSRFSGSGSGTDFTLTISSLQPEDFATYYCQSNFYSDSTTIGPNAFGTGTKVTVLGGGGGSGGGGSGGGGSGGGGSEVQLVESGGGRVQPGGSLRLSCAASGFSFNSDYWIYWVRQAPGKGLEWIASIYGGSSGNTQYASWAQGRFTISRDNSKNTVYLQMNSLRAEDSAVYFCARGYVDYGGATDLWGQGTAVQVSS", "pKd": 10.59}
{"binder": "PRO2230 (scFv 37-20-B03-sc09.1) (scFv, also called PRO2230 wt; a-PD-L1 wt) scFv: DIQMTQSPASLSASVGDRVTITCQASQSIGTYLAWYQQKPGKPPKLLIYRAFILASGVPSRFSGSGSGTDFTLTISSLQPEDFATYYCQSNFYSDSTTIGPNAFGTGTKVTVLGGGGGSGGGGSGGGGSGGGGSEVQLVESGGGLVQPGGSLRLSCAASGFSFNSDYWIYWVRQAPGKGLEWIASIYGGSSGNTQYASWAQGRFTISRDNSKNTVYLQMNSLRAEDTAVYFCARGYVDYGGATDLWGQGTLVTVSS", "pKd": 10.31}
{"binder": "PRO3339 (scFv 37-20-B03-sc09.1_(T101N, T146Q)) (scFv, PRO2230 variant; VH substitutions, AHo numbering; also called PRO2230 T101N-T146Q) scFv: DIQMTQSPASLSASVGDRVTITCQASQSIGTYLAWYQQKPGKPPKLLIYRAFILASGVPSRFSGSGSGTDFTLTISSLQPEDFATYYCQSNFYSDSTTIGPNAFGTGTKVTVLGGGGGSGGGGSGGGGSGGGGSEVQLVESGGGLVQPGGSLRLSCAASGFSFNSDYWIYWVRQAPGKGLEWIASIYGGSSGNTQYASWAQGRFTISRDNSKNTVYLQMNSLRAEDNAVYFCARGYVDYGGATDLWGQGTLVQVSS", "pKd": 10.46}
{"binder": "PRO3312 (scFv 37-20-B03-sc09.1_(T101R, T146Q)) (scFv, PRO2230 variant; VH substitutions, AHo numbering; also called PRO2230 T101R-T146Q) scFv: DIQMTQSPASLSASVGDRVTITCQASQSIGTYLAWYQQKPGKPPKLLIYRAFILASGVPSRFSGSGSGTDFTLTISSLQPEDFATYYCQSNFYSDSTTIGPNAFGTGTKVTVLGGGGGSGGGGSGGGGSGGGGSEVQLVESGGGLVQPGGSLRLSCAASGFSFNSDYWIYWVRQAPGKGLEWIASIYGGSSGNTQYASWAQGRFTISRDNSKNTVYLQMNSLRAEDRAVYFCARGYVDYGGATDLWGQGTLVQVSS", "pKd": 10.39}

Here is another binder to look at.
Supply pKd value. Item: PRO2933 (scFv 37-20-B03-sc09.1_(L144K, T146E, S148K)) (scFv, PRO2230 variant; VH substitutions, AHo numbering; also called PRO2230 L144K-T146E-S148K) scFv: DIQMTQSPASLSASVGDRVTITCQASQSIGTYLAWYQQKPGKPPKLLIYRAFILASGVPSRFSGSGSGTDFTLTISSLQPEDFATYYCQSNFYSDSTTIGPNAFGTGTKVTVLGGGGGSGGGGSGGGGSGGGGSEVQLVESGGGLVQPGGSLRLSCAASGFSFNSDYWIYWVRQAPGKGLEWIASIYGGSSGNTQYASWAQGRFTISRDNSKNTVYLQMNSLRAEDTAVYFCARGYVDYGGATDLWGQGTKVEVKS
10.35
